Tested on: 233499-124-R-J3-PDC spheroids with HUVEC/MSC, viability
Assay: Anticancer human tumor 233499-124-R-J3-PDC patient-derived colon adenocarcinoma cell line growth inhibition [PI3K]
Conditions: second compound 0.1 µM; first compound 0.1 µM; hits give low values
viability, T/C less than 60% is Yes; viability, T/C greater than or equal to 60% is No.

compound="CCN1CCN(Cc2ccc(Nc3ncc(F)c(-c4cc(F)c5nc(C)n(C(C)C)c5c4)n3)nc2)CC1 + Cc1nc(NC(=O)N2CCCC2C(N)=O)sc1-c1ccnc(C(C)(C)C(F)(F)F)c1" category=Yes
compound="CCN1CCN(Cc2ccc(Nc3ncc(F)c(-c4cc(F)c5nc(C)n(C(C)C)c5c4)n3)nc2)CC1 + CC(Nc1ccc2c(c1)OCCn1cc(N3C(=O)OCC3C(F)F)nc1-2)C(N)=O" category=No
compound="CCN1CCN(Cc2ccc(Nc3ncc(F)c(-c4cc(F)c5nc(C)n(C(C)C)c5c4)n3)nc2)CC1 + COc1c(OCCCN2CCOCC2)ccc2c3n(c(=NC(=O)c4cnc(N)nc4)nc12)CCN3" category=Yes
compound="Cn1ncc(Cl)c1-c1cc(C(=O)NC(CN)Cc2cccc(F)c2)sc1Cl (stereo not given) + COc1c(OCCCN2CCOCC2)ccc2c3n(c(=NC(=O)c4cnc(N)nc4)nc12)CCN3" category=No
compound="CNC(=O)c1ccc(N2C(=S)N(c3ccc(C#N)c(C(F)(F)F)c3)C(=O)C2(C)C)cc1F + Cc1nc(NC(=O)N2CCCC2C(N)=O)sc1-c1ccnc(C(C)(C)C(F)(F)F)c1" category=No

====

Test system: 233499-124-R-J3-PDC spheroids with HUVEC/MSC, viability
Test: Anticancer human tumor 233499-124-R-J3-PDC cell line growth inhibition [PI3K];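 also: spheroids exposed to agents for seven days before readout; percent viability relative to DMSO vehicle control taken as 100%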
Details: second compound 0.1 µM; first compound 0.1 µM; hits give low values
Entries and their measured viability, T/C follow.
readoutKind: viability, T/C (%)

compound="Cn1nccc1Nc1nccc(-c2ccn(C(CO)c3ccc(Cl)c(F)c3)c(=O)c2)n1 (stereo not drawn) + Cc1nc(NC(=O)N2CCCC2C(N)=O)sc1-c1ccnc(C(C)(C)C(F)(F)F)c1" readoutkind="viability, T/C" displayunit=% experimentalresult=100
compound="C=CC(=O)N1CCN(c2nc(=O)n(-c3c(C)ccnc3C(C)C)c3nc(-c4c(O)cccc4F)c(F)cc23)C(C)C1 (stereo not drawn) + CC(Nc1ccc2c(c1)OCCn1cc(N3C(=O)OCC3C(F)F)nc1-2)C(N)=O" readoutkind="viability, T/C" displayunit=% experimentalresult=94.5
compound="CC1(C)CCC(Nc2ncc(C(F)(F)F)c(-c3c[nH]c4c(P(C)(C)=O)c(C#N)ccc34)n2)CN1 (stereo not drawn) + COc1c(OCCCN2CCOCC2)ccc2c3n(c(=NC(=O)c4cnc(N)nc4)nc12)CCN3" readoutkind="viability, T/C" displayunit=% experimentalresult=53.9

====

System: 233499-124-R-J3-PDC spheroids with HUVEC/MSC, viability
Experiment: Anticancer human tumor 233499-124-R-J3-PDC cell line growth inhibition [PI3K];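 also: spheroids exposed to agents for seven days before readout; percent viability relative to DMSO vehicle control taken as 100%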
Conditions: second compound 3.16 µM; first compound 0.001 µM; hits give low values
readoutKind: viability, T/C

compound="CC(C)n1nc(-c2ccc3oc(N)nc3c2)c2c(N)ncnc21 + Cc1nc(NC(=O)N2CCCC2C(N)=O)sc1-c1ccnc(C(C)(C)C(F)(F)F)c1" measurementtarget="233499-124-R-J3-PDC spheroids with HUVEC/MSC, viability" readoutkind="viability, T/C" experimentalresult=50.6%
compound="Cn1ncnc1[C@H]1c2n[nH]c(=O)c3cc(F)cc(c23)N[C@@H]1c1ccc(F)cc1 + CC(Nc1ncnc2nc[nH]c12)c1cc2cccc(Cl)c2c(=O)n1-c1ccccc1" measurementtarget="233499-124-R-J3-PDC spheroids with HUVEC/MSC, viability" readoutkind="viability, T/C" experimentalresult=85.9%
compound="CC(=O)c1c(C)c2cnc(Nc3ccc(N4CCNCC4)cn3)nc2n(C2CCCC2)c1=O + CC(Nc1ncnc2nc[nH]c12)c1cc2cccc(Cl)c2c(=O)n1-c1ccccc1" measurementtarget="233499-124-R-J3-PDC spheroids with HUVEC/MSC, viability" readoutkind="viability, T/C" experimentalresult=105%
compound="Cn1ncnc1[C@H]1c2n[nH]c(=O)c3cc(F)cc(c23)N[C@@H]1c1ccc(F)cc1 + Cc1nc(NC(=O)N2CCCC2C(N)=O)sc1-c1ccnc(C(C)(C)C(F)(F)F)c1" measurementtarget="233499-124-R-J3-PDC spheroids with HUVEC/MSC, viability" readoutkind="viability, T/C" experimentalresult=43.5%
compound="CC(=O)c1c(C)c2cnc(Nc3ccc(N4CCNCC4)cn3)nc2n(C2CCCC2)c1=O + Cc1nc(NC(=O)N2CCCC2C(N)=O)sc1-c1ccnc(C(C)(C)C(F)(F)F)c1" measurementtarget="233499-124-R-J3-PDC spheroids with HUVEC/MSC, viability" readoutkind="viability, T/C" experimentalresult=57.2%
compound="CC(C)n1nc(-c2ccc3oc(N)nc3c2)c2c(N)ncnc21 + CC(Nc1ncnc2nc[nH]c12)c1cc2cccc(Cl)c2c(=O)n1-c1ccccc1" measurementtarget="233499-124-R-J3-PDC spheroids with HUVEC/MSC, viability" readoutkind="viability, T/C" experimentalresult=89.5%

====

Test system: 233499-124-R-J3-PDC spheroids with HUVEC/MSC, viability
Experiment: Anticancer human tumor 233499-124-R-J3-PDC cell line growth inhibition [PI3K];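 also: spheroids exposed to agents for seven days before readout; percent viability relative to DMSO vehicle control taken as 100%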
Details: second compound 0.0316 µM; first compound 0.01 µM; hits give low values
Could you please mark Yes for values of viability, T/C below 70% and No for values at or above it?

compound="CC(=O)c1c(C)c2cnc(Nc3ccc(N4CCNCC4)cn3)nc2n(C2CCCC2)c1=O + Cc1nc(NC(=O)N2CCCC2C(N)=O)sc1-c1ccnc(C(C)(C)C(F)(F)F)c1" category=No
compound="Cn1ncnc1[C@H]1c2n[nH]c(=O)c3cc(F)cc(c23)N[C@@H]1c1ccc(F)cc1 + CC(Nc1ccc2c(c1)OCCn1cc(N3C(=O)OCC3C(F)F)nc1-2)C(N)=O" category=No
compound="CC(=O)c1c(C)c2cnc(Nc3ccc(N4CCNCC4)cn3)nc2n(C2CCCC2)c1=O + CC(Nc1ncnc2nc[nH]c12)c1cc2cccc(Cl)c2c(=O)n1-c1ccccc1" category=No
compound="CC(C)n1nc(-c2ccc3oc(N)nc3c2)c2c(N)ncnc21 + Cc1nc(NC(=O)N2CCCC2C(N)=O)sc1-c1ccnc(C(C)(C)C(F)(F)F)c1" category=Yes
compound="CCN1CCN(Cc2ccc(Nc3ncc(F)c(-c4cc(F)c5nc(C)n(C(C)C)c5c4)n3)nc2)CC1 + CC(Nc1ncnc2nc[nH]c12)c1cc2cccc(Cl)c2c(=O)n1-c1ccccc1" category=No

====

As shown below, each of these molecules has a reported viability, T/C value.
System: 233499-124-R-J3-PDC spheroids with HUVEC/MSC, viability
Assay: Anticancer human tumor 233499-124-R-J3-PDC cell line growth inhibition [PI3K];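 also: spheroids exposed to agents for seven days before readout; percent viability relative to DMSO vehicle control taken as 100%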
Conditions: second compound 3.16 µM; first compound 1 µM; hits give low values
readoutKind: viability, T/C (%)

molecule="Cn1ncc(Cl)c1-c1cc(C(=O)NC(CN)Cc2cccc(F)c2)sc1Cl (stereo unspecified) + CC(Nc1ncnc2nc[nH]c12)c1cc2cccc(Cl)c2c(=O)n1-c1ccccc1" readoutkind="viability, T/C" experimentalresult=106
molecule="C[C@@H](NC(=O)c1ncnc(N)c1Cl)c1ncc(C(=O)Nc2cc(C(F)(F)F)c(Cl)cn2)s1 + CC(Nc1ncnc2nc[nH]c12)c1cc2cccc(Cl)c2c(=O)n1-c1ccccc1" readoutkind="viability, T/C" experimentalresult=109
molecule="CC(Cn1ccc(-c2ccc(C#N)c(Cl)c2)n1)NC(=O)c1cc(C(C)O)[nH]n1 (stereo unspecified) + CC(Nc1ncnc2nc[nH]c12)c1cc2cccc(Cl)c2c(=O)n1-c1ccccc1" readoutkind="viability, T/C" experimentalresult=88.7
molecule="CC(Cn1ccc(-c2ccc(C#N)c(Cl)c2)n1)NC(=O)c1cc(C(C)O)[nH]n1 (stereo unspecified) + Cc1nc(NC(=O)N2CCCC2C(N)=O)sc1-c1ccnc(C(C)(C)C(F)(F)F)c1" readoutkind="viability, T/C" experimentalresult=64.6
molecule="C#Cc1c(F)ccc2cc(O)cc(-c3ncc4c(N5CC6CCC(C5)N6)nc(OCC56CCCN5CC(F)C6)nc4c3F)c12 (stereo unspecified) + CC(Nc1ncnc2nc[nH]c12)c1cc2cccc(Cl)c2c(=O)n1-c1ccccc1" readoutkind="viability, T/C" experimentalresult=77.9
molecule="CC(C)NCC(C(=O)N1CCN(c2ncnc3c2C(C)CC3O)CC1)c1ccc(Cl)cc1 (stereo unspecified) + Cc1nc(NC(=O)N2CCCC2C(N)=O)sc1-c1ccnc(C(C)(C)C(F)(F)F)c1" readoutkind="viability, T/C" experimentalresult=59
molecule="CC1(C)CCC(Nc2ncc(C(F)(F)F)c(-c3c[nH]c4c(P(C)(C)=O)c(C#N)ccc34)n2)CN1 (stereo unspecified) + CC(Nc1ncnc2nc[nH]c12)c1cc2cccc(Cl)c2c(=O)n1-c1ccccc1" readoutkind="viability, T/C" experimentalresult=27.5
molecule="CCCS(=O)(=O)Nc1ccc(F)c(C(=O)c2c[nH]c3ncc(-c4ccc(Cl)cc4)cc23)c1F + CC(Nc1ncnc2nc[nH]c12)c1cc2cccc(Cl)c2c(=O)n1-c1ccccc1" readoutkind="viability, T/C" experimentalresult=85.7
molecule="C=CC(=O)N1CCN(c2nc(=O)n(-c3c(C)ccnc3C(C)C)c3nc(-c4c(O)cccc4F)c(F)cc23)C(C)C1 (stereo unspecified) + Cc1nc(NC(=O)N2CCCC2C(N)=O)sc1-c1ccnc(C(C)(C)C(F)(F)F)c1" readoutkind="viability, T/C" experimentalresult=34.1
molecule="C[C@@H](NC(=O)c1ncnc(N)c1Cl)c1ncc(C(=O)Nc2cc(C(F)(F)F)c(Cl)cn2)s1 + Cc1nc(NC(=O)N2CCCC2C(N)=O)sc1-c1ccnc(C(C)(C)C(F)(F)F)c1" readoutkind="viability, T/C" experimentalresult=42.5
molecule="CCN1CCN(Cc2ccc(Nc3ncc(F)c(-c4cc(F)c5nc(C)n(C(C)C)c5c4)n3)nc2)CC1 + Cc1nc(NC(=O)N2CCCC2C(N)=O)sc1-c1ccnc(C(C)(C)C(F)(F)F)c1" readoutkind="viability, T/C" experimentalresult=24.4
